TEST_SYSTEM: T1, 重组人PLVAP/PV-1蛋白 (human, UniProt Q9BX97 49-442, limits assumed)
T1 construct: Bought reagent (Abcam); Coupled to a CM5 chip in the SPR assay; also called 质膜膜泡关联蛋白
T1 sequence (looked up): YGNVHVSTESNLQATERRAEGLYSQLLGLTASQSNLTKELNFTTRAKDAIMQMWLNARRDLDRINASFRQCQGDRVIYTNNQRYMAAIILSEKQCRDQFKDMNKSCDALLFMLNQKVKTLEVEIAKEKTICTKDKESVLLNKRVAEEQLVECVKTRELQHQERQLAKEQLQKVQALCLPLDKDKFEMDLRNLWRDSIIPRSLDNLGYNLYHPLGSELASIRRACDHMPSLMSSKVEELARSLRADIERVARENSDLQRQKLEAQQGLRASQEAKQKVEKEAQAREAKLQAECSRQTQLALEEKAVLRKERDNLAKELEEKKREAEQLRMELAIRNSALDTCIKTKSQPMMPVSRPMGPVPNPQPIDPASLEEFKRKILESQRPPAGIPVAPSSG
TEST_PROTOCOL: SPR, Biacore T200, PV-1 coupled to CM5 chip, antibody as analyte, 25℃, 1:1 fit
EXPERIMENTAL_ENDPOINT: 倍数 (fold against HLPV-P00)

• HLPV-P01 (antibody, IgG1, V domains shown, Full IgG1/kappa antibody; also called 中间抗体; not shown: human IgG1 heavy chain constant region, UniProtKB P01857.1; human Kappa light chain constant region, UniProtKB P01834.2) VH: QVQLVQSGAEVKKPGASVKVSCKASGYTFTDYYMYWVRQAPGQGLEWIGEINPTQGDVNFNEMFKSRVTMTVDTSTSTAYMELSSLRSEDTAVYYCTSIFYWGQGTLVTVSS VL: DIVMTQSPSSLSASVGDRVTITCKASQDIKYQLSWYQQKPGKAPKTLIYYATDLADGVPSRFSGSGSGQEFTLTISSLQPEDFATYYCVQHDDRPFTFGQGTKLEIK = 7.31 fold
• HLPV-P13 (antibody, IgG1, V domains shown, Full IgG1/kappa antibody; not shown: human IgG1 heavy chain constant region, UniProtKB P01857.1; human Kappa light chain constant region, UniProtKB P01834.2) VH: QVQLVQSGAEVKKPGASVKVSCKASGYVFTDYYMYWVRQAPGQGLEWIGEINPTSGDVNFNEMFKSRVTMTVDTSTSTAYMELSSLRSEDTAVYYCTSIFYWGQGTLVTVSS VL: DIVMTQSPSSLSASVGDRVTITCKASQDIKYQLSWYQQKPGKAPKTLIYYAGDLADGVPSRFSGSGSGQEFTLTISSLQPEDFATYYCVQHDDRPFTFGQGTKLEIK = 9.29 fold

Q) Supply reported 倍数 (fold against HLPV-P00) belonging to this binder: HLPV-P04 (antibody, IgG1, V domains shown, Full IgG1/kappa antibody; not shown: human IgG1 heavy chain constant region, UniProtKB P01857.1; human Kappa light chain constant region, UniProtKB P01834.2) VH: QVQLVQSGAEVKKPGASVKVSCKASGYTFRDYYMYWVRQAPGQGLEWIGEINPTTGDVNFNEMFKSRVTMTVDTSTSTAYMELSSLRSEDTAVYYCTSIFYWGQGTLVTVSS VL: DIVMTQSPSSLSASVGDRVTITCKASQDIKYQLSWYQQKPGKAPKTLIYYATSLADGVPSRFSGSGSGQEFTLTISSLQPEDFATYYCVQHDDRPFTFGQGTKLEIK
A) 14 fold
